Origin of measurements: patent US20260083674A1

tested on: mitochondrial protein synthesis vs H37Rv M. tuberculosis; experiment: MPS selectivity index (MPS IC50 / MIC H37Rv)
Quick reference: SI-MPS MPS/H37 of the listed items.
In your answer, state the number alone without any accompanying words.

> print(dat)
                                   molecule  observed
1  Cl.Cl.NCCn1nnc(-c2ccc(-c3ccc(N4C[C@H](CN)OC4=O)cc3F)cn2)n1     32.80
2  CCN(CC)CCn1nnc(-c2ccc(-c3ccc(N4C[C@H](CNC(C)=O)OC4=O)cc3F)cn2)n1      0.12
3  Cn1nnc(-c2ccc(-c3ccc(N4C[C@H](CO)OC4=O)cc3F)cn2)n1 [Tedizolid, reference compound]      0.57
4  CN(C)CCCn1nnc(-c2ccc(-c3ccc(N4C[C@H](CN)OC4=O)cc3F)cn2)n1.Cl (stereo in doubt)      2.02
5  CCN(CC)CCCn1nnc(-c2ccc(-c3ccc(N4C[C@H](CNC(C)=O)OC4=O)cc3F)cn2)n1      0.13

Looking up `Cl.NCCn1nnnc1-c1ccc(-c2ccc(N3C[C@H](CO)OC3=O)cc2F)cn1` , I see its SI-MPS MPS/H37 listed as 2.37

* * *

system: M.tb H37Rv; experiment: Broth microdilution MIC with Alamar blue endpoint (MABA), M.tb H37Rv; type: cell-based; details: Mycobacterium tuberculosis, broth microdilution, MABA/OD600, read-out: Mycobacterium tuberculosis MIC, H37Rv
OBSERVED PROPERTY: MIC (µg/mL)
Write it as a number; the unit µg/mL goes unstated.

Look over these answered cases.
> print(dat)
                                   compound  observed
1  CCN(CC)CCCn1nnc(-c2ccc(-c3ccc(N4C[C@H](CN)OC4=O)cc3F)cn2)n1.Cl [AKG-31]       0.5
2  Cl.Cn1nnc(-c2ccc(-c3ccc(N4C[C@H](CNC(=O)CCCN)OC4=O)cc3F)cn2)n1 [AKG-18]         2
3  Cl.Cn1nnc(-c2ccc(-c3ccc(N4C[C@H](CNC(=O)CCN)OC4=O)cc3F)cn2)n1 [AKG-17]         2

Looking up CN(C)CCNc1ccc(-c2ccc(N3C[C@H](CO)OC3=O)cc2F)cn1 [AKG-12] , I see its MIC listed as 4

* * *

test system: human hepatocyte/liver (HepG2; ATCC #HB8065) cells; test: In vitro cytotoxicity (PrestoBlue cell viability), HepG2 cells; details: HepG2, 72 h, read-out: Cell viability IC50, HepG2
OBSERVED PROPERTY: IC50 (µg/mL)
Write it as a number; the unit µg/mL goes unstated.

> print(dat)
                                   compound  observed
1  Cl.Cn1nnc(-c2ccc(-c3ccc(N4C[C@H](CNC(=O)CCCN)OC4=O)cc3F)cn2)n1       9.5
2  Cl.Cn1nnc(-c2ccc(-c3ccc(N4C[C@H](CNC(=O)CCN)OC4=O)cc3F)cn2)n1      37.3
3  CCN(CC)CCNC[C@H]1CN(c2ccc(-c3ccc(-c4nnn(C)n4)nc3)c(F)c2)C(=O)O1      28.1
4  CN(C)CCNc1ccc(-c2ccc(N3C[C@H](CO)OC3=O)cc2F)cn1      67.6

# context switch: different compound, same IC50
Looking up `Cl.Cl.NCCn1nnc(-c2ccc(-c3ccc(N4C[C@H](CN)OC4=O)cc3F)cn2)n1` , I see its IC50 listed as 74.4
